Reference source for all entries: patent US7294330B2

molecular target: β-glucuronidase (Sigma) (EC 3.2.1.31) from E. coli (Escherichia coli, UniProt P05804); construct: purchased Sigma G-7396; experiment: biochemical; conditions: test concentration 0.50 %; 30 min, 37° C., pH 6.8
Sequence (P05804 whole entry): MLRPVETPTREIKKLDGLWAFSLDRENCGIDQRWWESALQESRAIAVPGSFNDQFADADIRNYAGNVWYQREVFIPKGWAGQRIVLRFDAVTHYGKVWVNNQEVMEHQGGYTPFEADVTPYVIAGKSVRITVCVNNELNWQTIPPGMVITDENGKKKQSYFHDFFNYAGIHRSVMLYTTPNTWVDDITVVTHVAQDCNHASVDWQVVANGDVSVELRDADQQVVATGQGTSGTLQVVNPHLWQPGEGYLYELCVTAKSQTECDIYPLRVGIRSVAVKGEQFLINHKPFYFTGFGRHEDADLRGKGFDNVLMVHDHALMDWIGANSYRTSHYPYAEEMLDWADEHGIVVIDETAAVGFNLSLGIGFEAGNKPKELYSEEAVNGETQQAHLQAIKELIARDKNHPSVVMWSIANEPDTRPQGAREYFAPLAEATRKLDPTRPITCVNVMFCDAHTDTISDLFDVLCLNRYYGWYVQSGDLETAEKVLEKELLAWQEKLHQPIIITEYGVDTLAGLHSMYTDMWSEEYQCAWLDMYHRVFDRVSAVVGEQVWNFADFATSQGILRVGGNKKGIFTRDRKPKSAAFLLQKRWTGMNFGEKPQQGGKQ
PROPERTY_NAME: Residual activity (%)

COMPOUND	SYSTEM_NAME	PROPERTY_NAME	RECORDED_NUMBER
O=C([O-])CN(CCN(CC(=O)[O-])CC(=O)[O-])CC(=O)[O-].[Na+].[Na+].[Na+].[Na+] [Trilon B, EDTA-4 Na, reference compound]	β-glucuronidase (Sigma) (EC 3.2.1.31) from E. coli (Escherichia coli, UniProt P05804)	Residual activity	57
CC(O)C(=O)[O-].CC(O)C(=O)[O-].[Zn+2] (centres unmarked) [Zinc lactate, zinc lactate]	β-glucuronidase (Sigma) (EC 3.2.1.31) from E. coli (Escherichia coli, UniProt P05804)	Residual activity	3
CC(=O)CCc1ccc(O[C@@H]2O[C@H](CO)[C@@H](O)[C@H](O)[C@H]2O)cc1 [Raspberry ketone glucoside, 4-(γ-ketobutyl)phenyl β-D-glucoside]	β-glucuronidase (Sigma) (EC 3.2.1.31) from E. coli (Escherichia coli, UniProt P05804)	Residual activity	125
O=C([O-])CN(CC(=O)[O-])CC(=O)[O-].[Na+].[Na+].[Na+] [Trilon A, Nitrilotriacetic acid 3 Na, reference compound]	β-glucuronidase (Sigma) (EC 3.2.1.31) from E. coli (Escherichia coli, UniProt P05804)	Residual activity	71
C=CCc1ccc(O[C@@H]2O[C@H](CO)[C@@H](O)[C@H](O)[C@H]2O)c(OC)c1 [Eugenyl Glucoside]	β-glucuronidase (Sigma) (EC 3.2.1.31) from E. coli (Escherichia coli, UniProt P05804)	Residual activity	12
